Molecular target: human GLP-1 receptor (human, UniProt P43220 24-463)
Test: cell-based or functional assay
*1 amine or outer side, *2 acyl side, *3 side chain or, on linkers, in order; H or OH if unused. Where no end group is shown, it is not given here. Side-chain parts run from the residue outwards. [ ]: non-standard residue; d: D form. The star is where a group is joined. Undecanoyl(11-OPh(4-COOH)) = O=C(O)c1ccc(OCCCCCCCCCCC(=O)*)cc1; γGlu = O=C(O)[C@H](CCC(=O)[*:2])N[*:1]; εLys = N[C@@H](CCCCN[*:1])C(=O)[*:2]; Aib = CC(C)(N)C(=O)O
MEASUREMENT KIND: In vitro potency (AlphaScreen cAMP; membranes) EC50 (nM)
Quick reminder: number only, in nM, skip the unit.

HXEGTFTSDVSSYLEGQAAKEFIAWLVRGRK (Aib at 8; eps-amino of Lys26 and Lys37 each acylated with 12-(4-carboxyphenoxy)dodecanoyl-gGlu-Ser-Ser-Gly-Ser-Ser-Gly-eps-Lys) | 0.252

In the following, a different binder is considered.
**Q:** Please give the measured In vitro potency (AlphaScreen cAMP; membranes) EC50 for this binder: `H[Aib]EGTFTSDVSK([εLys-Gly-Ser-Ser-Gly-Ser-Ser-Gly-Ser-Ser-Gly-Ser-Ser-Gly-Ser-Ser-Gly-Ser-Ser-γGlu-Undecanoyl(11-OPh(4-COOH))])YLEGQAAK([εLys-Gly-Ser-Ser-Gly-Ser-Ser-Gly-Ser-Ser-Gly-Ser-Ser-Gly-Ser-Ser-Gly-Ser-Ser-γGlu-Undecanoyl(11-OPh(4-COOH))])EFIAWLVQGRG`
**A:** 0.486
